Assay Target: c-kit autophosphorylation (Phospho c-Kit Tyr721) in HMC 1.1 (exon 11/13) cells, V654A (Homo sapiens, UniProt P10721, V560G/V654A)
Construct: endogenous in cells; host or cells: HMC 1.1 (exon 11/13) cells
Sequence (P10721 26-976 V560G/V654A): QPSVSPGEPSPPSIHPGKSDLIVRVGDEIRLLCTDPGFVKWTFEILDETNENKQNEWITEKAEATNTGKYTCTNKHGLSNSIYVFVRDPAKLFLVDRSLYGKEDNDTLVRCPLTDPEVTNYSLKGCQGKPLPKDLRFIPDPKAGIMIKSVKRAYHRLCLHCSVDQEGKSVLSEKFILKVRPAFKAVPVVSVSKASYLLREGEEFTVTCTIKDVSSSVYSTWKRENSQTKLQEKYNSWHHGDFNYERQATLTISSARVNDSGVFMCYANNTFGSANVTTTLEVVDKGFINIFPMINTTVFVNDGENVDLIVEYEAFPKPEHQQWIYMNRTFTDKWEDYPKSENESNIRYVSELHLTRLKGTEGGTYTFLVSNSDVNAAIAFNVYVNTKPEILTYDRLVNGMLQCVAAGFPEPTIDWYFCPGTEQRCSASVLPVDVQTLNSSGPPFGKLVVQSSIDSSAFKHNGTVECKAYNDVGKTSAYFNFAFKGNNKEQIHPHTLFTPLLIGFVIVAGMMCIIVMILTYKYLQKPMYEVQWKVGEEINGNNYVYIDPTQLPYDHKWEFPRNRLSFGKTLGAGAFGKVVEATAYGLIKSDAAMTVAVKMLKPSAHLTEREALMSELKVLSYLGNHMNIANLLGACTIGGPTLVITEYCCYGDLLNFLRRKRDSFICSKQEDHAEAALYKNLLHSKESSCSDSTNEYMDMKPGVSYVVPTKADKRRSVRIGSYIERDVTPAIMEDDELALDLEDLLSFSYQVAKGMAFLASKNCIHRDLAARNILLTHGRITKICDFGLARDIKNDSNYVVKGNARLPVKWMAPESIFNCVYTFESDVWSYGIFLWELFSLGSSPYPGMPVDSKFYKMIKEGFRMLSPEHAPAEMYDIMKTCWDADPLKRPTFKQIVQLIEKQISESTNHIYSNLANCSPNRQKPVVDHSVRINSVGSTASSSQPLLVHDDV
Experiment Description: pKIT Meso Scale Discovery (MSD) assay, inhibition of autophosphorylation of KIT, HMC1.1_V654A
Format: cell-based
Conditions Used: Table 1, cell line not named for Table 1, b1056 names pKIT HMC1.1_V654A, read-out: Code (IC50 for inhibition of autophosphorylation of KIT, pKIT MSD assay)
pIC50: −log10 of the molar value. Structures can show the parent of a compound that is named as a salt.
Collected pIC50 values appear next to each entry.
Quantity Measured: pIC50

>>> df
                                   compound  quantity_measured  observed_result
0  COc1cc(Nc2cc(N)nc(C(F)F)n2)ncc1-c1cnn(CC(C)N(C)C)c1 (centres unmarked)              pIC50           > 8.00
1  CNC(=O)c1cnc(Nc2cc(N)nc(C(F)F)n2)cc1NCc1ccccc1              pIC50     7.40 to 8.00
2  COc1cc(Nc2cc(N)nc(C(F)F)n2)ncc1-c1cnn(C[C@@H]2CCN2)c1 (single isomer, unassigned)              pIC50           > 8.00
3  CNc1cc(Nc2cc(N)nc(C(F)F)n2)ncc1-c1cn(C)nn1              pIC50     7.40 to 8.00
4  COc1cc(Nc2cc(N)nc(C(F)F)n2)ncc1-c1cnn(CCNCC(F)(F)F)c1              pIC50           > 8.00
5  Nc1cc(Nc2cc(OC3CC3)c(-c3cnn(C[C@H]4CCN4)c3)cn2)nc(C(F)F)n1 (single isomer, unassigned)              pIC50           > 8.00
6  COc1cc(Nc2cc(N)nc(C(F)F)n2)ncc1-c1cnn(CCO)c1 [Compound 59, trifluoroacetate]              pIC50     7.40 to 8.00
7  CCNC(=O)c1cnc(Nc2cc(N)nc(C(F)F)n2)cc1N[C@H](C)CF              pIC50           > 8.00
